Where do these numbers come from? They come from patent US20180168208A1.

Biological target: T1R1/T1R3 receptor (Felis catus, UniProt E3UMS2)
Assay: Example 6: activation of T1R1/T1R3 by transmembrane compounds, conducted as in Example 5
Type: cell-based
Conditions: T1R1/T1R3 EC50 +0.2 mM IMP, +0.2 mM IMP
recordedMetric: EC50 (µM)
Provide only the numeric value, understood in µM.

Nc1ccccc1C(=O)NCCc1ccccc1 [2-amino-N-phenethylbenzamide]    140

Shift focus to the following entry.
Which EC50 is reported for this compound? O=C(NCCc1c[nH]c2ccccc12)c1cccnc1 [N-(2-(1H-indol-3-yl)ethyl)nicotinamide, N-(2-(1H-Indol-3-yl)ethyl)nicotinamide]
50

----------
Target: T1R1/T1R3 receptor (Felis catus)
Assay: cell-based
Details: T1R1/T1R3 EC50 +20 mM L-alanine + 0.2 mM IMP, +20 mM L-alanine + 0.2 mM IMP
Quick reference for EC50 among some compounds
The answer is to be given in µM; state only the numeric part.

Nc1ccccc1C(=O)NCCc1ccccc1 [2-amino-N-phenethylbenzamide]    90

Param item = O=C(NCCc1c[nH]c2ccccc12)c1cccnc1 [N-(2-(1H-indol-3-yl)ethyl)nicotinamide, N-(2-(1H-Indol-3-yl)ethyl)nicotinamide] ; retrieve measured EC50.
40
